Measured EC50 of individual entries
System: HCV replicon in Huh7 cells
Experiment: HCV replicon cell-based assay
Parameters: species or system HCV strain 1B
Conditions: Hepatitis C virus, Huh-7; HCV replicon, Huh7 cells; read-out: EC50 range

# EC50 of C=CC1C[C@]1(NC(=O)[C@@H]1C[C@@H](Oc2nccc3c4c(ccc23)OCO4)CN1C(=O)[C@@H](NC(=O)OC(C)(C)C)C(C)(C)C)C(=O)NS(=O)(=O)C1CC1 (some centres unmarked) [Compound 211] = < 100 nM

For C=C[C@@H]1C[C@]1(NC(=O)[C@@H]1C[C@@H](Oc2nccc3c(C(F)(F)F)cccc23)CN1C(=O)[C@@H](NC(=O)OC(C)(C)C)C(C)(C)C)C(=O)NS(=O)(=O)C1CC1 [Compound 270] the compound record lists EC50 as 100 to 1000 nM

---

System: HCV replicon in Huh7 cells
Test: HCV replicon cell-based assay
Design: species or system HCV strain 1B
Conditions: Hepatitis C virus, Huh-7; HCV replicon, Huh7 cells; read-out: EC50 range
Protocol: HCV Replicon Cell-based Assay This system enabled us to evaluate the effects of our HCV Protease compounds on HCV RNA replication. […] Huh7 cells, constitutively expressing the HCV replicon, were grown in Dulbecco's Modified Eagle Media (DMEM) containing 10% Fetal calf serum (FCS) and 1 mg/ml G418 (Gibco-BRL). […] The plate was then placed into the Cytofluor 4000 instrument which had been set to 340 nm excitation/490 emission, automatic mode for 21 cycles and the plate read in a kinetic mode. […]
pEC50: −log10 of the molar value.
# pEC50 per entry

Below, each entry is followed by its recorded pEC50 result.
compound	pEC50
C=C[C@@H]1C[C@]1(NC(=O)[C@@H]1C[C@@H](Oc2nc(-c3cnccn3)cc3ccccc23)CN1C(=O)[C@@H](NC(=O)OC(C)(C)C)C(C)(C)C)C(=O)NS(=O)(=O)C1CC1	> 7.00
C=C[C@@H]1CC1(NC(=O)[C@@H]1CC(Oc2nccc3cc(OC)ccc23)CN1C(=O)[C@@H](NC(=O)O[C@@H]1C[C@H](C)CC[C@H]1C(C)C)C(C)(C)C)C(=O)NS(=O)(=O)C1CC1 (stereo partly shown)	6.00 to 7.00
C=C[C@@H]1CC1(NC(=O)[C@@H]1CC(Oc2nccc3cc(OC)ccc23)CN1C(=O)[C@@H](NC(=O)CC1CC1)C(C)(C)C)C(=O)NS(=O)(=O)C1CC1 (stereo partly shown)	> 7.00
C=C[C@@H]1C[C@]1(NC(=O)[C@@H]1C[C@@H](Oc2cc(-c3csc(NC(C)C)n3)nc3cc(OC)ccc23)CN1C(=O)[C@@H](NC(=O)OC(C)(C)C)C(C)(C)C)C(=O)NS(=O)(=O)C1CC1	5.00 to 6.00

Notebook: C=C[C@@H]1C[C@]1(NC(=O)[C@@H]1C[C@@H](Oc2ccnc3cc(Cl)ccc23)CN1C(=O)[C@@H](NC(=O)OC1CCCC1)C(C)(C)C)C(=O)NS(=O)(=O)C1CC1 , pEC50 read as > 7.00

Reported pEC50 for C=CC1C[C@]1(NC(=O)[C@@H]1C[C@@H](Oc2nc3c(c4ccccc24)OCC3)CN1C(=O)[C@@H](NC(=O)OC(C)(C)C)C(C)(C)C)C(=O)NS(=O)(=O)C1CC1 (stereo partly shown) was > 7.00

What the record says about C=C[C@@H]1C[C@]1(NC(=O)[C@@H]1C[C@@H](Oc2cccc(-c3ccoc3)n2)CN1C(=O)[C@@H](NC(=O)OC(C)(C)C)C(C)(C)C)C(=O)NS(=O)(=O)C1CC1 : pEC50 is 6.00 to 7.00
